Test Protocol: cancer stem cell viability inhibitors, primary screen, luminescence (AID 2717)
Settings: cancer stem cell-like cells viability, at 7.5 µM
Out of some 300,000 compounds screened, about 3,200 (1.1%) were called active. Rule as the data show it: active = inhibition above about 75%; inconclusive = no clear call, values can overlap the other calls; inactive = below that; tested in HMLE shEcad cells. This excerpt belongs to a sample that is enriched for actives.
The categories you may choose from are True = active, False = inactive

As a guide, the following entries are already answered.
Molecule	Category Label
COC(=O)C1=C(c2ccc(-c3ccccc3)c(F)c2)C[C@@H]2CC[C@H]1N2C(=O)NCc1ccc(F)cc1	False
COC(=O)C1=C(c2ccc(F)cc2OCc2ccccc2)C[C@@H]2CC[C@H]1N2C(=O)NCc1ccc(Cl)cc1	False
Cc1ccc(P(=S)(c2ccc(C)o2)N2CCOCC2)o1	True
COc1ccc(-c2nn(CCC#N)cc2C(=O)O)cc1	False
C[C@]12CC[C@H](O)CC1=C([N+](=O)[O-])CC1C2CC[C@@]2(C)C1CC[C@@H]2O (stereo partly specified)	False

Turning now to a further record.
input: Write down the call the test reported for this molecule. Item: O=C(O)C1CSC(c2cccnc2)N1 (stereo unspecified)
output: False

---

Test Protocol: cancer stem cell viability inhibitors, primary screen, luminescence (AID 2717)
Settings: cancer stem cell-like cells viability, at 7.5 µM
About 3,200 (1.1%) of roughly 300,000 compounds were called active. Rule as the data show it: active = inhibition above about 75%; inconclusive = no clear call, values can overlap the other calls; inactive = below that; tested in HMLE shEcad cells. The list comes from a sample in which actives are over-represented; it also holds close analogues and randomly drawn compounds.
The categories you may choose from are active, inactive

input: Write down the call the test reported for this compound. Item: N=c1ccccn1Cc1ccccc1
output: inactive

input: Write down the call the test reported for this compound. Item: CCC(=O)c1ccc(OCC(=O)N2CCN(CC(=O)Nc3ccc(C)cc3)CC2)cc1
output: inactive

input: Write down the call the test reported for this compound. Item: Nc1ccc([N+](=O)[O-])cc1
output: inactive

input: Write down the call the test reported for this compound. Item: COC(=O)C1=C(c2ccccc2OCc2ccccc2)C[C@@H]2CC[C@H]1N2C(=O)NCc1ccc(OC)cc1
output: inactive

---

Test Protocol: cancer stem cell viability inhibitors, primary screen, luminescence (AID 2717)
Settings: cancer stem cell-like cells viability, at 7.5 µM
The campaign covered roughly 300,000 compounds. About 3,200 (1.1%) were called active. Cut-off read from the data, not from the text of the source: active = inhibition above about 75%; inconclusive = no clear call, values can overlap the other calls; inactive = below that; tested in HMLE shEcad cells. This is one part of a sample in which actives are shown more often than they occur.
The categories you may choose from are active, inactive

Molecule	Category Label
CCC1(C)CC(CCNCc2ccc(N(C)C)cc2)(c2ccc(F)cc2)CCO1 (configuration not stated)	inactive
Cc1ccc(-n2c(C)cc(/C=C3\C(=O)NC(=O)N(C)C3=O)c2C)cc1C	inactive
O=C1NC(=O)N(CCc2ccc(F)cc2)C(=O)/C1=C/C=C/c1ccccc1	active
C[C@]12CCC3C(CC[C@H]4C[C@@H](O)CC[C@]34C)C1CC[C@@H]2O (some centres not stated)	inactive
C[C@]12CCC3C(CC[C@H]4C[C@@H](O)CC[C@]34C)C1C[C@@H](O)[C@H]2O (some centres not stated)	inactive
CC(Cc1ccccc1)NC=O (configuration not stated)	inactive

Turning now to a further record.
input: Write down the call the test reported for this molecule. Item: N#Cc1ccc(Cn2cc(C(=O)c3ccco3)c3ccccc32)cc1
output: inactive
